These measurements were taken from paper PMC10397247.

Target: T1, O8-bA
T1 chain: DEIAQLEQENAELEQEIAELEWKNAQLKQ
Assay: two-hybrid library CCNG1;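 further: natural log of median RNA to DNA barcode read ratio; higher means stronger binding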
METRIC: interaction score

// worked examples, interaction score included
DEIQELEKKIEELEREIWELEKKNQELKR [4H264-bH] | 0.091
DKIAQLKQKNAELKQKIAELKWENAQLEQ [O7-bA] | 2.08
DKIAQLKQEIAELEQENAELEWENAQLEQ [O11-bA] | -1.31
DENAQLEQEIAELEQENAELEWKIAQLKQ [O14-bA] | -0.111
DEIAQLEQENAELEQEIAELEWKNAQLKQ [O8-bA] | -0.832

[P] DKIAQLKQEIAELEQKNAELKWKNAQLKQ [O4-bA]
[Q] DENAQLEQKNAELKQKIAELKWKIAQLKQ [O2-bA]
query: Which value of interaction score is numerically greater: that of P or that of Q ? Record your answer as the label of the chosen record.
result: Q
